Hello, the source for this data is ChEMBL document CHEMBL2380254, in case you need it.

Tested on: 786-0
protocol-notes: Growth inhibition of human 786-0 cells assessed as cell growth at 10 uM after 48 hrs by sulforhodamine B assay
Assay type: functional
recorded-conditions: 786-0, 48 h, read-out: Activity
Label condition met when growth at 10 µM < 80%; otherwise condition not met.

Solved entries (count: 5):
COc1ccc(CCN2COc3c(C)c(C)c4c(c3C2)CC[C@@](C)(CC/C=C(\C)CC/C=C(\C)CCC=C(C)C)O4)cc1OC : condition not met
CC(C)=CCC/C(C)=C/CC/C(C)=C/CC[C@]1(C)CCc2c3c(cc(C)c2O1)OCN(CCCCCCCCO)C3 : condition met
CC(C)=CCC/C(C)=C/CC/C(C)=C/CC[C@]1(C)CCc2cc(O)c(C)c(C)c2O1 : condition not met
CC(C)=CCC/C(C)=C/CC/C(C)=C/CC[C@]1(C)CCc2c3c(cc(C)c2O1)OCN(CCCO)C3 : condition met
CC(C)=CCC/C(C)=C/CC/C(C)=C/CC[C@]1(C)CCc2c3c(cc(C)c2O1)OCN(CCCCCCCCCCCCO)C3 : condition not met

As a next step, examine the compound that follows.
Report whether reported growth at 10 µM is lower than 80% (strictly) for COc1ccc(CCN2COc3cc(C)c4c(c3C2)CC[C@@](C)(CC/C=C(\C)CC/C=C(\C)CCC=C(C)C)O4)cc1OC
condition met

* * *

Test system: CAKI-1
protocol-notes: Growth inhibition of human CAKI-1 cells after 48 hrs by sulforhodamine B assay
Assay type: functional
recorded-conditions: CAKI-1, 48 h
GI50 strictly less than 4 µM = fulfilled. Otherwise not fulfilled.

CC(C)=CCC/C(C)=C/CC/C(C)=C/CC[C@]1(C)CCc2c3c(c(C)c(C)c2O1)OCN(CCCCO)C3 : not fulfilled
CC(C)=CCC/C(C)=C/CC/C(C)=C/CC[C@]1(C)CCc2c3c(cc(C)c2O1)OCN(CCCCO)C3 : not fulfilled
CC(C)=CCC/C(C)=C/CC/C(C)=C/CC[C@]1(C)CCc2c3c(cc(C)c2O1)OCN(CCCO)C3 : fulfilled
CC(C)=CCC/C(C)=C/CC/C(C)=C/CC[C@]1(C)CCc2c3c(cc(C)c2O1)OCN(CCCCCCO)C3 : fulfilled
CC(C)=CCC/C(C)=C/CC/C(C)=C/CC[C@]1(C)CCc2c3c(c(C)c(C)c2O1)OCN(CCCCCCO)C3 : fulfilled

Confirm or reject: GI50 of CC(C)=CCC/C(C)=C/CC/C(C)=C/CC[C@]1(C)CCc2c3c(c(C)c(C)c2O1)OCN(CCCCCCCCO)C3 lies strictly below 4 µM
not fulfilled

Is 4 µM strictly greater than the molecule's reported GI50? molecule: CC(C)=CCC/C(C)=C/CC/C(C)=C/CC[C@]1(C)CCc2c3c(cc(C)c2O1)OCN(CCc1ccc(O)cc1)C3
not fulfilled

* * *

protocol-notes: Antiproliferative activity against mouse +SA cells by MTT assay
Assay type: functional, cell-based
recorded-conditions: +SA cell
Listed here: items and their measured IC50.
Please respond with the number in µM and leave the unit unwritten.

Below are worked cases with known answers.
CC(C)=CCC/C(C)=C/CC/C(C)=C/CC[C@]1(C)CCc2cc3c(c(C)c2O1)CN(CCO)CO3 : 0.96
CC(C)=CCC/C(C)=C/CC/C(C)=C/CC[C@]1(C)CCc2c3c(cc(C)c2O1)OCN(CCCCCC(=O)O)C3 : 5.1
CC(C)=CCC/C(C)=C/CC/C(C)=C/CC[C@]1(C)CCc2c(CO)c(O)c(C)c(C)c2O1 : 2.6
CC(C)=CCC/C(C)=C/CC/C(C)=C/CC[C@]1(C)CCc2c3c(c(C)c(C)c2O1)OCN(CCCO)C3 : 2.5
CC(C)=CCC/C(C)=C/CC/C(C)=C/CC[C@]1(C)CCc2c3c(c(C)c(C)c2O1)OCN(CCCCCCO)C3 : 2.1
CCOC(CCN1COc2cc(C)c3c(c2C1)CC[C@@](C)(CC/C=C(\C)CC/C=C(\C)CCC=C(C)C)O3)OCC : 1
CC(C)=CCC/C(C)=C/CC/C(C)=C/CC[C@]1(C)CCc2c3c(c(C)c(C)c2O1)OCN(Cc1cccc([N+](=O)[O-])c1)C3 : 24.6
CC(C)=CCC/C(C)=C/CC/C(C)=C/CC[C@]1(C)CCc2c3c(cc(C)c2O1)OCN(CCCCC(=O)O)C3 : 11.9

What does the data say about its IC50? Entry: CC(C)=CCC/C(C)=C/CC/C(C)=C/CC[C@]1(C)CCc2c3c(c(C)c(C)c2O1)OCN(Cc1ccccc1)C3
2

If you can, please state the reported IC50 value of CC(C)=CCC/C(C)=C/CC/C(C)=C/CC[C@]1(C)CCc2c3c(cc(C)c2O1)OCN(C1CCN(Cc2ccccc2)CC1)C3 .
0.8

# input compound: CC(C)=CCC/C(C)=C/CC/C(C)=C/CC[C@]1(C)CCc2c3c(cc(C)c2O1)OCN(CCc1ccc(O)cc1)C3 ; wanted: its IC50
0.91

Which measured IC50 value corresponds to CC(C)=CCC/C(C)=C/CC/C(C)=C/CC[C@]1(C)CCc2c3c(c(C)c(C)c2O1)OCN(CCCCCCCCO)C3 ?
1.4

Consider the compound CC(C)=CCC/C(C)=C/CC/C(C)=C/CC[C@]1(C)CCc2c3c(c(C)c(C)c2O1)OCN(CCCCCC(=O)O)C3 and give its measured IC50.
5

# get_value(readout='IC50', item= CC(C)=CCC/C(C)=C/CC/C(C)=C/CC[C@]1(C)CCc2c3c(cc(C)c2O1)OCN(Cc1cccc([N+](=O)[O-])c1)C3 )
29.1

Fill in the blank: the reported IC50 of COc1ccc(CCN2COc3cc(C)c4c(c3C2)CC[C@@](C)(CC/C=C(\C)CC/C=C(\C)CCC=C(C)C)O4)cc1OC is ____.
0.87

What value of IC50 has been reported for the following compound? CC(C)=CCC/C(C)=C/CC/C(C)=C/CC[C@]1(C)CCc2c3c(cc(C)c2O1)OCN(CCCCCCCCO)C3
0.79
